- Tested on: NCI-H522 lung
- measurement_description: NCI tumour cell line growth inhibition, 48 h; in the data active = GI50 below about 0.43 µM; inactive = the rest
Write down one outcome, taken from label 1 = active, label 0 = inactive

Below, 4 compounds whose answers are already recorded.
CN(C)CCNc1nc2ccccc2c2c(=O)c3cc(F)ccc3sc12
label 0
CC(=O)c1ccc2c(c1)C(=O)c1sc(C(C)=O)cc1C2=O
label 1
N#CC(C#N)=C1CCCOc2c1ccc1ccccc21
label 0
O=C1c2ccccc2C(=O)c2c(NCCN=Cc3ccccc3O)cccc21
label 0

Alright, here's another compound for you.
Query: Tell me the recorded outcome of this test for "O=C(N[C@@H](Cc1coc2ccccc12)B(O)O)[C@@H]1C[C@H]2CC[C@@H]1O2" .
Response: label 0

---

- Test system: MALME-3M melanoma
- measurement_description: NCI tumour cell line growth inhibition, 48 h
attribute_measured: TGI (µM)
I only need the number, in µM, no unit after it.

Here's what some known entries look like.
C=CC1(CC[C@]2(c3ccc(OC)c(OC)c3)C=[N+]([O-])O[C@H](O[C@@H]3CCCC[C@H]3C(C)(C)c3ccccc3)C2)OCC(C)(C)CO1
24.8
CC(=O)c1c(N=[N+]=[N-])c2cccc3c2n(c1=O)CCC3
27.6
COc1ccc(-c2nn(-c3cccc(Cl)c3)cc2-c2nc(N)[nH]c(=O)c2C#N)cc1
40.6
O=C(Nc1ccc(Cl)cc1)Nc1nccs1
54.1
NC(=O)CNc1ccc([As]=[As]c2ccc(NCC(N)=O)cc2)cc1 (stereo unspecified)
9.71

Query: I am curious: what TGI value has been reported for CC(=O)SC(C[N+](=O)[O-])c1ccc2c(c1)OCO2 (stereo unspecified) ?
Response: 15.8

Query: Reported TGI, molecule COc1cc(/C=C2\CCC/C(=C\c3ccc(OCC4CO4)c(OC)c3)C2=O)ccc1OCC1CO1 (stereo unspecified) : ____
Response: 4.56

---

- Test system: IGROV1 ovarian
- measurement_description: NCI tumour cell line growth inhibition, 48 h
attribute_measured: TGI

N#Cc1c(-c2ccco2)cc(-c2ccc(N)cc2)[nH]c1=O
> 100 µM
CC(=O)NC1C(Sc2ncn(C3OC(CO)C(O)C(O)C3NC(C)=O)n2)OC(CO)C(O)C1O (centres undefined)
> 100 µM
C1=NC(N(Cc2ccccc2)Cc2ccccc2)N(Cc2ccccc2)N1 (centres undefined)
33.6 µM
COC(=O)[C@]12CC[C@@H](C)[C@H](C)[C@@H]1C1=CC[C@@H]3[C@@]4(C)C(C=O)=C[C@@](C)(COC(=O)c5ccco5)[C@@H]4[C@H](O)C[C@@]3(C)[C@]1(C)CC2
> 100 µM
CCOC(=O)CCC(NC(=O)c1ccc(NCc2ccc3nc(-c4ccccc4)c(Cl)nc3c2)cc1)C(=O)OCC (centres undefined)
> 100 µM

Query: GET /values?readout=TGI&item= "CC(=O)OCCOCNC(=S)N/N=C/c1ccc([N+](=O)[O-])s1"
Response: > 100 µM

Query: I have this molecule here, "COc1cc2c(cc1O)NC(=O)[C@@H]1CCCN1C2=O" , and I need its recorded TGI.
Response: > 100 µM

Query: Fill in the blank: the reported TGI of C=C1C(O)C2C(=C(C)C13CC3)C(=O)C(C)(C)C2OC (centres undefined) is ____.
Response: > 100 µM

Query: # query: TGI of entry "Cc1ccc(S(=O)(=O)C2=C(C(C)C)N=NC2(C)C)cc1"
Response: > 100 µM

---

- Test system: DU-145 prostate
- measurement_description: NCI tumour cell line growth inhibition, 48 h
attribute_measured: TGI

Cc1ccc2occ/c(=N\Nc3ccccc3)c2c1
> 100 µM
CC(=O)Nc1c(C(=N)C#N)ncn1CCO
> 100 µM
CCOC(=O)c1sc(NC(=O)COc2cccc(/C=C3\CCc4cc(OC)ccc4C3=O)c2)nc1C
3.81 µM

Query: For the compound "CCOC(=O)c1ccc(-c2ccc(Cl)cc2)[nH]1" , what TGI is on record?
Response: > 10 µM

Query: Data request, read-out TGI, for "COc1ccc(-c2noc(N)c2-c2cc(OC)c3c(c2)OCO3)cc1"
Response: > 90.9 µM

Query: Please report the recorded TGI for "c1ccc(NCCSc2nc3ccccc3s2)cc1" .
Response: > 100 µM

Query: Which measured TGI value corresponds to "CCOC(=O)c1sc2nc(SC)nc(Nc3ccc4c(c3)OCCO4)c2c1N" ?
Response: 33.5 µM

---

- Tested on: K-562 leukemia
- measurement_description: NCI tumour cell line growth inhibition, 48 h; in the data active = GI50 below about 0.43 µM; inactive = the rest
I would appreciate it if you answered using one of these outcomes: active, inactive

Some solved cases for reference:
CC1(C)N=C(N)N=C(N)N1c1cccc(OCCOc2cccc([N+](=O)[O-])c2)c1
inactive
Cc1noc2c1-c1ccccc1C(c1ccc(Cl)cc1)=N[C@H]2CC(N)=O
inactive
CNCCn1c(=O)c2cc(OC)c(OC)cc2c2cnc3cc4c(cc3c21)OCO4
active
COc1cc2c3c(n(CCCN(CCO)CCO)c(=O)c2cc1OC)-c1cc2c(cc1C3=O)OCO2
active
COc1cc(/C=C/C(=O)C(C(=O)/C=C/c2ccc(OC(=O)CCNC34CC5CC(CC(C5)C3)C4)c(OC)c2)C(=O)CCNC23CC4CC(CC(C4)C2)C3)ccc1OC(=O)CCNC12CC3CC(CC(C3)C1)C2 (configuration not stated)
inactive
NC(=O)CNc1ccc([As]=[As]c2ccc(NCC(N)=O)cc2)cc1 (configuration not stated)
inactive

Query: What was the test verdict on "O=C(NNc1cnccn1)c1nc2cc(F)ccc2n2cccc12" ?
Response: active

---

- System: NCI-H522 lung
- measurement_description: NCI tumour cell line growth inhibition, 48 h; in the data active means GI50 below about 0.43 µM; inactive means the rest
Reply using exactly one outcome from yes (1) = active, no (0) = inactive

Solved cases below.
COC(=O)[C@]12CC[C@@H](C)[C@H](C)[C@@H]1C1=CC[C@@H]3[C@@]4(C)C(C=O)=C[C@@](C)(COC(=O)c5ccco5)[C@@H]4[C@H](O)C[C@@]3(C)[C@]1(C)CC2
no (0)
COc1cc2c3c(n(CCCN(C)CCO)c(=O)c2cc1OC)-c1cc2c(cc1C3=O)OCO2
no (0)
CNCCn1c(=O)c2cc(OC)c(OC)cc2c2cnc3cc4c(cc3c21)OCO4
yes (1)
CCOC(=O)c1sc(NC(=O)COc2cccc(/C=C3\CCc4cc(OC)ccc4C3=O)c2)nc1C
no (0)

Query: For this compound, state the assay outcome: "Cc1ccc2[c](c1)[Sn]([c]1ccccc1)([c]1ccccc1)[c]1cc(C)ccc1N2C"
Response: no (0)

Query: Answer briefly: the call reported for "Cc1noc2c1-c1ccccc1C(c1ccc(Cl)cc1)=N[C@H]2CC(N)=O" in this assay.
Response: no (0)

Query: Hi, do you know how "Clc1nc(Cl)c2ncn(Cc3ccccc3Cn3cnc4c(Cl)nc(Cl)nc43)c2n1" came out in this test?
Response: no (0)

Query: Which outcome was assigned to "Cc1cc(NCCCCNc2ccnc3cc(Cl)ccc23)nc(Nc2ccc(C(=O)N3CCCCC3)cc2)n1" in this test?
Response: no (0)

Query: State the result this test recorded for CNC(C)[C@H]1CCC2C3CC=C4C(=O)[C@@H](NC(=O)C=C(C)C)CC[C@]4(C)C3CC[C@@]21C (some centres undefined) .
Response: no (0)

Query: # lookup: test call for "O=C(CCN1CCOCC1)Nc1cccc(-n2cc(-c3ccncc3)c(-c3ccc(Cl)c(O)c3)n2)c1"
Response: no (0)

---

- Test system: SNB-19 CNS
- measurement_description: NCI tumour cell line growth inhibition, 48 h
Parameter threshold = 3 µM. Response is yes (1) when TGI meets or exceeds it, else no (0).

C=CCn1c(SCC(=O)Nc2ccc(C(=O)/C=C/c3cc(OC)c(OC)c(OC)c3)cc2)nnc1-c1ccc(OC)cc1
yes (1)
O=C(NC1CCCCC1)c1ccc(Nc2ncnc3c2cnn3-c2ccccc2)cc1
yes (1)
C=C1C(O)C2C(=C(C)C13CC3)C(=O)C(C)(C)C2OC (stereo not given)
yes (1)
COC(=O)N[C@H](C(=O)NC(OCc1ccccc1)C1COC(C)(C)O1)C(C)O[Si](C)(C)C(C)(C)C (stereo not given in full)
yes (1)

Query: # check: TGI of CCC[CH2][Sn]1([CH2]CCC)[O]CC(COc2c(Cl)cc(Cl)cc2Cl)[O]1 (stereo not given) is greater than or equal to 3 µM
Response: no (0)

Query: Does "O=C(Nc1ccc(Cl)cc1)Nc1nccs1" have a reported TGI of at least 3 µM?
Response: yes (1)

Query: Hi team, for C=C1CC[C@H]2C(=O)OC(c3ccoc3)C[C@]2(C)C/C=C\C=C/1C(=O)OC (stereo not given in full) , is the recorded TGI at or above 3 µM?
Response: yes (1)

Query: // inclusive: TGI at least 3 µM? input: "CNCCn1c(=O)c2cc(OC)c(OC)cc2c2cnc3cc4c(cc3c21)OCO4"
Response: no (0)

Query: Tell me whether TGI is at least 3 µM here: "Cc1ccc(C(=O)NCc2ccccc2)cc1N=NN(C)C"
Response: yes (1)

Query: Could you please find out whether "NCCCn1c2c(c3ccccc3c1=O)C(=O)c1ccccc1-2" has TGI that meets 3 µM or exceeds it?
Response: yes (1)
